Subject Of Test: Phenylethanolamine N-methyltransferase (Homo sapiens) (UniProt P11086)
Sequence (P11086 whole entry, looked up): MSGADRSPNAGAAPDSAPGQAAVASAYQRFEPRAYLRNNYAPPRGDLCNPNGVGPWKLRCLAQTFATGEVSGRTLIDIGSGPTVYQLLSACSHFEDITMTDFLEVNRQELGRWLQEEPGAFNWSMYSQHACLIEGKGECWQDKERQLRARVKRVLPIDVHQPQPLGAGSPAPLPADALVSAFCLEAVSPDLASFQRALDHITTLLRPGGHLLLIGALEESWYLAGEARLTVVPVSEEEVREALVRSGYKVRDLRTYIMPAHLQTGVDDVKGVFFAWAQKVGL
Measurement Protocol: Primary Screen for Target Class Profiling of Small Molecule Inhibitors of Methyltransferases; further: on the % scale 0 is the no-effect control and ±100 the full control effect
Applied Conditions: purified enzyme, MTase-Glo SAH luminescence; measured here: PNMT inhibition; at 40 µM; stronger effect = lower value
Description: PI: Matthew D. Hall Ph.D. and Quinlin M. Hanson Ph.D. National Center for Advancing Translational Sciences (NCATS) National Institute of Health (NIH), Rockville, MD […] High-through put screening assays were developed at the National Center for Advancing Translational Science (NCATS) for the enzymes NNMT, PNMT, HNMT, GNMT, COMT, and GAMT. Enzymatic activity was measured as a function of SAM cofactor conversion using the MTase Glo kit (Promega) for all enzymes. […]
Hit rate of the full screen: of about 25,000 compounds, about 970 (3.9%) were called active. Not shown: some 8% with an inconclusive outcome. This excerpt belongs to a sample that is enriched for actives.
Reported activity change, negative = inhibition values for the following compounds.

Compound	Subject Of Test	activity change, negative = inhibition (%)
C=C1C(=O)O[C@@H]2C[C@@]3(C)CCCC(=C)[C@]3(O)C[C@H]12	Phenylethanolamine N-methyltransferase (Homo sapiens) (UniProt P11086)	7.18
Cc1ccc(N2C(=O)c3cc4sccc4n3CC2(C)C(=O)NC2CCCCC2C)cc1 (configuration not stated)	Phenylethanolamine N-methyltransferase (Homo sapiens) (UniProt P11086)	-6.83
CCCn1c(=O)c2ccc(C(=O)NC(C)CC)cc2n2c(=O)n(CC(=O)Nc3ccccc3)nc12 (configuration not stated)	Phenylethanolamine N-methyltransferase (Homo sapiens) (UniProt P11086)	3.03
CC1(C)CCC2(C(=O)OC3OC(COC4OC(CO)C(O)C(O)C4O)C(O)C(O)C3O)CCC3(C)C(=CCC4C5(C)CCC(O)C(C)(C(=O)O)C5CCC43C)C2C1O (configuration not stated)	Phenylethanolamine N-methyltransferase (Homo sapiens) (UniProt P11086)	4.84
COCCCn1c(=O)[nH]c2cccnc21	Phenylethanolamine N-methyltransferase (Homo sapiens) (UniProt P11086)	9.39
CN(Cc1cc(C2CC2)n[nH]1)C(=O)C(c1ccc(F)cc1)N(C)C (configuration not stated)	Phenylethanolamine N-methyltransferase (Homo sapiens) (UniProt P11086)	2.27
CC1CC(O)/C=C/C(O)/C=C\C(=O)O1 (configuration not stated)	Phenylethanolamine N-methyltransferase (Homo sapiens) (UniProt P11086)	5.9

---

Subject Of Test: Phenylethanolamine N-methyltransferase (Homo sapiens)
Measurement Protocol: Primary Screen for Target Class Profiling of Small Molecule Inhibitors of Methyltransferases; further: on the % scale 0 is the no-effect control and ±100 the full control effect
Applied Conditions: purified enzyme, MTase-Glo SAH luminescence; measured here: PNMT inhibition; at 40 µM; stronger effect = lower value
Among all 25,000 compounds or so, about 970 (3.9%) were called active. Inconclusive results (about 8%) are left out. This is one part of a sample in which actives are shown more often than they occur.
Recorded Endpoint: activity change, negative = inhibition (%)

Molecule	Subject Of Test	Units Label	Recorded Value
CN(C)CCN(C)[C@H]1[C@@H]2OC[C@@H](O2)[C@@H](NCc2ccc(N(C)C)cc2)[C@@H]1O	Phenylethanolamine N-methyltransferase (Homo sapiens)	%	0.902
O=C(c1coc(CN2CCN(C/C=C/c3ccccc3)CC2)n1)N1CCC[C@H]1CO	Phenylethanolamine N-methyltransferase (Homo sapiens)	%	15.6
CCC(CC)C(=O)NC[C@H]1O[C@@H](CC(=O)N2CCC(C)CC2)[C@H](O)[C@@H]1O	Phenylethanolamine N-methyltransferase (Homo sapiens)	%	-0.431
CCCS(=O)(=O)N1CCCC(Cn2c(C)nc3cccnc32)C1 (stereo not given)	Phenylethanolamine N-methyltransferase (Homo sapiens)	%	-1.53
COc1ccccc1CN[C@H]1[C@H](O)[C@@H](N2CCN(c3ccccc3OC)CC2)[C@@H]2OC[C@H]1O2	Phenylethanolamine N-methyltransferase (Homo sapiens)	%	2.62

---

Subject Of Test: Glycine N-methyltransferase (Homo sapiens)
Measurement Protocol: Primary Screen for Target Class Profiling of Small Molecule Inhibitors of Methyltransferases; further: on the % scale 0 is the no-effect control and ±100 the full control effect
Applied Conditions: purified enzyme, MTase-Glo SAH luminescence; measured here: GNMT inhibition; at 40 µM; stronger effect = lower value
Among all 25,000 compounds or so, about 970 (3.9%) were called active. About 8% were inconclusive and are not listed. The sample as a whole holds a higher share of actives than the screen did.
Recorded Endpoint: activity change, negative = inhibition (%)

Molecule	Recorded Endpoint	Recorded Value
COc1ccc(NC(=O)c2ccc(-c3ccc(C(=N)N)cc3C)cc2)cc1N1CCN(C)CC1	activity change, negative = inhibition	-8.27
Cc1cc(Cl)ccc1OCC(=O)N1CC(CO)C2(CCNCC2)C1 (configuration not stated)	activity change, negative = inhibition	-0.912
COC(=O)CCc1cc2ccoc2c(OC)c1O[C@@H]1O[C@H](CO)[C@@H](O)[C@H](O)[C@H]1O	activity change, negative = inhibition	2.54
CCCN1C(=O)c2cc3sccc3n2CC1(C)C(=O)NC1CCC(C)CC1 (configuration not stated)	activity change, negative = inhibition	0.536
CC1(C(=O)NC2CCCC2)Cn2c(cc3ccccc32)C(=O)N1c1ccc(F)cc1 (configuration not stated)	activity change, negative = inhibition	0.736
CCNc1ccnc(N2C[C@H]3CN(C(=O)N(C)C)C[C@@]3(C(=O)O)C2)n1	activity change, negative = inhibition	0.021
Cc1cccc(-c2nnn3c2nc(N2CCC(C)CC2)c2ccccc23)c1	activity change, negative = inhibition	-5.45

---

Subject Of Test: Guanidinoacetate N-methyltransferase (Homo sapiens) (UniProt Q14353)
Measurement Protocol: Primary Screen for Target Class Profiling of Small Molecule Inhibitors of Methyltransferases; further: on the % scale 0 is the no-effect control and ±100 the full control effect
Applied Conditions: purified enzyme, MTase-Glo SAH luminescence; measured here: GAMT inhibition; at 40 µM; stronger effect = lower value
Protocol: PI: Matthew D. Hall Ph.D. and Quinlin M. Hanson Ph.D. National Center for Advancing Translational Sciences (NCATS) National Institute of Health (NIH), Rockville, MD […] High-through put screening assays were developed at the National Center for Advancing Translational Science (NCATS) for the enzymes NNMT, PNMT, HNMT, GNMT, COMT, and GAMT. Enzymatic activity was measured as a function of SAM cofactor conversion using the MTase Glo kit (Promega) for all enzymes. […]
Among all 25,000 compounds or so, about 970 (3.9%) were called active. Roughly 8% stayed inconclusive and do not appear here. Only a selection was taken, and actives are over-represented in it overall.
Recorded Endpoint: activity change, negative = inhibition (%)

Compound	Units Label	Recorded Value
Cc1c(NS(=O)(=O)c2cccc3c2C(=O)c2ccccc2C3=O)c(=O)n(-c2ccccc2)n1C	%	3.01
COc1c(C)c(OCC=C(C)C)cc2c1C(=O)NC2=O	%	8.39
COc1ccc2cc3n(c2c1)CC(C)(C(=O)NC1CCCC1)N(CCc1ccc(SC)cc1)C3=O (configuration not stated)	%	0
O=C(C1CC1)N1CCn2c(nn(-c3ccc(F)cc3)c2=O)C1	%	-8.31
CCn1c(=O)n(CC)c2cc(S(=O)(=O)Nc3ccc(Br)c(C)c3)c(Cl)cc21	%	3.91
CC(C)Cn1c(=O)c2ccccc2n2c(CCC(=O)N3CCN(c4cccc(Cl)c4)CC3)nnc12	%	-4.12
COCCn1c2c(c(=O)n1-c1ccccc1)CCN(Cc1cccc(C#N)c1)C2	%	-6.81
Cc1cccc(CCNC(=O)c2cc3n(n2)CC(C)(C(=O)NCc2ccccc2)N(C)C3=O)c1 (configuration not stated)	%	0.251
CCOc1ccc(CNC(=O)c2ncn3c2C(=O)N(C2CC2)C(C)(C(=O)NCc2ccccc2Cl)C3)cc1 (configuration not stated)	%	2.43
CC(=O)N(C1CCOCC1)C1CCN(S(=O)(=O)c2ccc3c(c2)OCCO3)CC1	%	0
O=C(NCc1ccc2c(c1)OCO2)c1sc(=S)n2c1[nH]c(=O)c1ccccc12	%	0
CN(C)[C@@H]1C(=O)C(C(N)=O)=C(O)[C@@]2(O)C(=O)C3=C(O)c4c(O)ccc(Cl)c4[C@@H](O)[C@H]3C[C@@H]12	%	6.87

---

Subject Of Test: Catechol O-methyltransferase (Homo sapiens) (UniProt P21964)
Sequence (P21964 whole entry, looked up): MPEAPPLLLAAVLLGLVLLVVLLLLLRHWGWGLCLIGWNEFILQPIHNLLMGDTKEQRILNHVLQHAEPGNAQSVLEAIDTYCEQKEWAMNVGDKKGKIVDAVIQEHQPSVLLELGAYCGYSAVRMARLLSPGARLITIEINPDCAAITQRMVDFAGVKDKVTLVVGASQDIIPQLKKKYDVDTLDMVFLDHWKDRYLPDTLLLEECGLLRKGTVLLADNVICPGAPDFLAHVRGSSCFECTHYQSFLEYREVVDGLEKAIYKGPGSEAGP
Measurement Protocol: Primary Screen for Target Class Profiling of Small Molecule Inhibitors of Methyltransferases; further: on the % scale 0 is the no-effect control and ±100 the full control effect
Applied Conditions: purified enzyme, MTase-Glo SAH luminescence; at 40 µM, stronger effect = lower value
In all, about 25,000 compounds went through this assay and about 970 (3.9%) were called active. Another 8% or so got no clear call; they are omitted. Only a selection was taken, and actives are over-represented in it overall.
Recorded Endpoint: activity change, negative = inhibition (%)

Compound	Subject Of Test	Recorded Endpoint	Recorded Value
O=C(N[C@@H]1CN(C2CCOCC2)CC[C@@H]1CO)c1ccccc1	Catechol O-methyltransferase (Homo sapiens) (UniProt P21964)	activity change, negative = inhibition	-14.8
CCCS(=O)(=O)N1CCCC(Cn2c(C)nc3cccnc32)C1 (configuration not stated)	Catechol O-methyltransferase (Homo sapiens) (UniProt P21964)	activity change, negative = inhibition	-1.28
O=C1N2CCCC2CN1C1CCN(Cc2ccsc2)CC1 (configuration not stated)	Catechol O-methyltransferase (Homo sapiens) (UniProt P21964)	activity change, negative = inhibition	3.52
CCCn1c(=O)c2ccc(C(=O)NC(C)CC)cc2n2c(=O)n(CC(=O)Nc3cc(C)cc(C)c3)nc12 (configuration not stated)	Catechol O-methyltransferase (Homo sapiens) (UniProt P21964)	activity change, negative = inhibition	4.21
CCC[C@H]1CN(C(=O)c2ccc3c(c2)NC(=O)CN3)C[C@@H]1N	Catechol O-methyltransferase (Homo sapiens) (UniProt P21964)	activity change, negative = inhibition	-3.16
Cc1noc(C)c1S(=O)(=O)NCCC1CN(c2cnn(C)c(=O)c2)CCO1 (configuration not stated)	Catechol O-methyltransferase (Homo sapiens) (UniProt P21964)	activity change, negative = inhibition	4.53
COc1ccc(C2Cn3nnc(-c4noc(C5CCC5)n4)c3CO2)cc1 (configuration not stated)	Catechol O-methyltransferase (Homo sapiens) (UniProt P21964)	activity change, negative = inhibition	-14.4
COC1CCN(CC2CCCCCN2C(=O)NCc2ccc(F)cc2)CC1 (configuration not stated)	Catechol O-methyltransferase (Homo sapiens) (UniProt P21964)	activity change, negative = inhibition	0.269
CCn1ccnc1CN(C)C(=O)c1cc(COc2ccccc2F)[nH]n1	Catechol O-methyltransferase (Homo sapiens) (UniProt P21964)	activity change, negative = inhibition	4.03
O=S(=O)(c1ccc2[nH]c3c(c2c1)CCCC3)N1CCN(Cc2ccccc2)CC1	Catechol O-methyltransferase (Homo sapiens) (UniProt P21964)	activity change, negative = inhibition	4.94
Cc1cccc(CCNC(=O)c2cc3n(n2)CC(C)(C(=O)NCc2ccccc2)N(C)C3=O)c1 (configuration not stated)	Catechol O-methyltransferase (Homo sapiens) (UniProt P21964)	activity change, negative = inhibition	0.858
CCCn1c(=O)c2cc(Cl)ccc2n2c(SCC(=O)Nc3ccc(Cl)cc3)nnc12	Catechol O-methyltransferase (Homo sapiens) (UniProt P21964)	activity change, negative = inhibition	-0.206
